- Target Or System: Fetal Liver Tyrosine Kinase 3 (FLT3) (Homo sapiens, UniProt P36888)
- Sequence (P36888 27-993): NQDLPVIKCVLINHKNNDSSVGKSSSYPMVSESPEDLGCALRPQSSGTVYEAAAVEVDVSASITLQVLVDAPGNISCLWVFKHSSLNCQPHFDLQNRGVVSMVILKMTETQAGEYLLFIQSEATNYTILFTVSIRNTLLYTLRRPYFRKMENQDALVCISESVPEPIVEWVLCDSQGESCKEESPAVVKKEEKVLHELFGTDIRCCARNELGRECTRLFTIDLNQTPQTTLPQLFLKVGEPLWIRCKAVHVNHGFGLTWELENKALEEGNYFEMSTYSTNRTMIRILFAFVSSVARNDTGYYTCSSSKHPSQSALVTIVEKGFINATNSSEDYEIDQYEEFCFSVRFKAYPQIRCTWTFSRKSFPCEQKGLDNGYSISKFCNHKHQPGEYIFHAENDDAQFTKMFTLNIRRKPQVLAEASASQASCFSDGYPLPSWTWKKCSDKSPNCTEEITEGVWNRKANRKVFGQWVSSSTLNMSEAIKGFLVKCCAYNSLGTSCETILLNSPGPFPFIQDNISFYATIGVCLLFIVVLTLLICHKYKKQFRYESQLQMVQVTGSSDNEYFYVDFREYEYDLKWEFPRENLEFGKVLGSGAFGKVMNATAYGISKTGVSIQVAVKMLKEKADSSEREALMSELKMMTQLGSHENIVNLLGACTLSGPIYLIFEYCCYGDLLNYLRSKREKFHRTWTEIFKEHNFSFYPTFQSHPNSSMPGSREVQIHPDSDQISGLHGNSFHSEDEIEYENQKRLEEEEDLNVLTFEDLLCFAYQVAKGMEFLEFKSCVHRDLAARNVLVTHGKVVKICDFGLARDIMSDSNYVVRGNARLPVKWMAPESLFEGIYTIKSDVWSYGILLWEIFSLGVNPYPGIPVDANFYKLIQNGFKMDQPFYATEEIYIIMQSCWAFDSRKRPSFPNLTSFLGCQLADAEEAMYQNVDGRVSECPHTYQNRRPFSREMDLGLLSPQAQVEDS
Assay Metric: IC50 (µM)
Answers are plain numbers, in µM.

Prompt: Using the record for "Cc1cc(NCCCN(C)C)nc(NC(=O)Nc2ccc(Cl)c(Cl)c2)n1" , report its IC50.
Response: 0.02

###

- Target Or System: OLIG2 (Homo sapiens)
- Sequence (Q13516 whole entry): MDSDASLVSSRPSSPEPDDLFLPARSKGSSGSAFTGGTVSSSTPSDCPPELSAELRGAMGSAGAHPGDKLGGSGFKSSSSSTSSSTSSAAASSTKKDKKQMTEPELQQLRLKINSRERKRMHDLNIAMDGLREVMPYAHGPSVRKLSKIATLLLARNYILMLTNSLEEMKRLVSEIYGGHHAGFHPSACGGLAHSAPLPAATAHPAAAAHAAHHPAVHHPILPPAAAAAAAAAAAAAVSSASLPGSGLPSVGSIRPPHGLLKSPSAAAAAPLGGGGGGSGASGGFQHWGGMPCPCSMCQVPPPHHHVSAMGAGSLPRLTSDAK
Assay Metric: IC50

Prompt: # query: IC50 | item Cc1cc(NCCCN(C)C)nc(NC(=O)Nc2ccc(Cl)c(Cl)c2)n1 [CT-179] | system: OLIG2 (Homo sapiens)
Response: 1250 nM

These data points were gathered from paper PMC11794477.
